For each record, write down the corresponding pIC50.
# tgt: recombinant human Cox-2 (r-hu Cox-2) (Homo sapiens)
# protocol: Recombinant human PGHS-2 (r-hu Cox-2) enzyme assay, PGE2 by EIA
# assay conditions: parenthetical values indicate IC50; read-out: r-hu COX2 IC50 (parenthetical values)
# Procedure: To compare the mean responses of the treatment groups, analysis of variance was applied. Percent inhibition values were determined by comparing the individual treatment mean values to the mean of the control group. […] EIA reagents for prostaglandin determination were purchased from Perseptive Diagnostics, (Cambridge, MA). Prostaglandin E2 (PGE2) levels in lavage fluids were determined after the samples were dried under nitrogen and reconstituted with assay buffer. […]
Here pIC50 is given on a logarithmic scale as minus log10 of the concentration in mol/L.

Query block: // pIC50 lookup, key: CS(=O)(=O)c1ccc(-c2nn3c(c2-c2ccc(F)cc2)OCCC3)cc1 [Example 1]
Result block: 6.14

Query block: For the molecule CS(=O)(=O)c1ccc(-c2nn3c(c2-c2ccc(F)cc2)OCc2ccccc2C3)cc1 [Example 3] , what pIC50 is on record?
Result block: 7.05

Query block: Looking for the measured pIC50 of CCc1coc2c(-c3ccc(F)cc3)c(-c3ccc(S(N)(=O)=O)cc3)nn12 [Example 62] , can you help?
Result block: 8.70

---

# tgt: recombinant human Cox-1 (r-hu Cox-1) (Homo sapiens, UniProt P23219)
# Construct: made in house; host or cells: baculovirus/Sf9 insect cells (microsomes)
# Sequence (P23219 24-599): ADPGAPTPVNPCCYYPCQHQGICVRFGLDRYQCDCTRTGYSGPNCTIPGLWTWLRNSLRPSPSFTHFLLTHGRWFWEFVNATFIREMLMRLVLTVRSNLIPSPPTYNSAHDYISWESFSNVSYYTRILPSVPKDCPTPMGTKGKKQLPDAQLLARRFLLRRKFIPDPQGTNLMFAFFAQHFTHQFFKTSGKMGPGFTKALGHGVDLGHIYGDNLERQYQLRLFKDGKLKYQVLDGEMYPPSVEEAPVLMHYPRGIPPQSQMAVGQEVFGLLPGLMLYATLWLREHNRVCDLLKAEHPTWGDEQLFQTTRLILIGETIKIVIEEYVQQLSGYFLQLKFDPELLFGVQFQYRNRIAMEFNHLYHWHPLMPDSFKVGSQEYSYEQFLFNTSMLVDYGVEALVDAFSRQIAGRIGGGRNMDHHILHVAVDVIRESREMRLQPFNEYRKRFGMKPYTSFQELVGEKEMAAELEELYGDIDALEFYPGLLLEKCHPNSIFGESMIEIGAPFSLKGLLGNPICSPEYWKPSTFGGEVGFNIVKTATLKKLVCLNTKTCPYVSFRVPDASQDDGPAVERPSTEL
# protocol: Recombinant human PGHS-1 (r-hu Cox-1) enzyme assay, PGE2 by EIA
# Format: biochemical
# assay conditions: at 100 µM; read-out: r-hu COX1 percent inhibition
Please provide measured inhibition at 100 µM for the entries that follow.
Field format: number, assumed %, no unit text.

Query block: Form field: inhibition at 100 µM recorded for CS(=O)(=O)c1ccc(-c2nn3c(c2-c2ccc(F)cc2)OCCCC3)cc1 with recombinant human Cox-1 (r-hu Cox-1) (Homo sapiens, UniProt P23219) (enter value)
Result block: 9

Query block: // fetch recombinant human Cox-1 (r-hu Cox-1) (Homo sapiens, UniProt P23219) inhibition at 100 µM for CCc1coc2c(-c3ccc(F)cc3)c(-c3ccc(S(N)(=O)=O)cc3)nn12
Result block: 91

Query block: # get_value(readout= inhibition at 100 µM, system= recombinant human Cox-1 (r-hu Cox-1) (Homo sapiens, UniProt P23219)) for CS(=O)(=O)c1ccc(-c2nn3c(c2-c2ccc(F)cc2)OCc2ccccc2-3)cc1
Result block: 25

Query block: Checklist item: inhibition at 100 µM tested on recombinant human Cox-1 (r-hu Cox-1) (Homo sapiens, UniProt P23219), entry CS(=O)(=O)c1ccc(-c2nn3c4c(oc3c2-c2ccc(F)cc2)CCCC4)cc1 , value?
Result block: 23

Query block: Request: inhibition at 100 µM, test system recombinant human Cox-1 (r-hu Cox-1) (Homo sapiens, UniProt P23219), entry CS(=O)(=O)c1ccc(-c2nn3c(c2-c2ccc(F)cc2)OCCC3)cc1
Result block: 4

Query block: Lab note: need inhibition at 100 µM with recombinant human Cox-1 (r-hu Cox-1) (Homo sapiens, UniProt P23219) for entry CCc1coc2c(-c3ccc(F)cc3)c(-c3ccc(S(C)(=O)=O)cc3)nn12 , please look it up.
Result block: 23

Query block: Give the reported inhibition at 100 µM for CS(=O)(=O)c1ccc(-c2nn3c(c2-c2ccc(F)cc2)OCC=CC3)cc1 (system: recombinant human Cox-1 (r-hu Cox-1) (Homo sapiens, UniProt P23219)).
Result block: 12

Query block: Report inhibition at 100 µM for CS(=O)(=O)c1ccc(-c2nn3c(c2-c2ccc(F)cc2)OCc2ccccc2C3)cc1 tested on recombinant human Cox-1 (r-hu Cox-1) (Homo sapiens, UniProt P23219).
Result block: 20

Query block: Entry Cc1c(C#N)oc2c(-c3ccc(F)cc3)c(-c3ccc(S(N)(=O)=O)cc3)nn12 , system recombinant human Cox-1 (r-hu Cox-1) (Homo sapiens, UniProt P23219): what inhibition at 100 µM was measured?
Result block: 96

---

# tgt: recombinant human Cox-2 (r-hu Cox-2) (Homo sapiens)
# Construct: made in house; host or cells: baculovirus/Sf9 insect cells (microsomes)
# Sequence (P35354 18-604): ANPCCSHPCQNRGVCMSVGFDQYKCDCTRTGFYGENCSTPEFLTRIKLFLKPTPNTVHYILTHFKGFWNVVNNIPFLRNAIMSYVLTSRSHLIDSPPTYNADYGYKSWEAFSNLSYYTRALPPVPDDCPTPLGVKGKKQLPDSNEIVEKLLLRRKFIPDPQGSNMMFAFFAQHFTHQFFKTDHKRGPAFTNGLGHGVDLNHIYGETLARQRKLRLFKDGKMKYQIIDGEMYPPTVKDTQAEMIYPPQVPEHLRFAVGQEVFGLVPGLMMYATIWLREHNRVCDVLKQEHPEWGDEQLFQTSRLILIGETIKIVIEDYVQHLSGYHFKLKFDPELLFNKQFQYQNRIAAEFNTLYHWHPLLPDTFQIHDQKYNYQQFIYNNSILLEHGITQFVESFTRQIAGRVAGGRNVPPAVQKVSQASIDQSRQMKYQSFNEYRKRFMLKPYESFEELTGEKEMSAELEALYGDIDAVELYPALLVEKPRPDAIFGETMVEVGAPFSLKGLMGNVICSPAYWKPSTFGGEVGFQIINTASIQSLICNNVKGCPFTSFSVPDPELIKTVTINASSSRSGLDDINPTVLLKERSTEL
# protocol: Recombinant human PGHS-2 (r-hu Cox-2) enzyme assay, PGE2 by EIA
# Type: biochemical
# assay conditions: at 100 nM; read-out: r-hu COX2 percent inhibition
Criterion: inhibition at 0.1 µM meeting or surpassing 90%. Met: t. Not met: f.

Query block: Tell me whether inhibition at 0.1 µM is at least 90% here: CS(=O)(=O)c1ccc(-c2nn3c4c(oc3c2-c2ccc(F)cc2)CCCC4)cc1 [Example 42]
Result block: f

Query block: hey, is inhibition at 0.1 µM for this one >= 90%? Cc1c(C#N)oc2c(-c3ccc(F)cc3)c(-c3ccc(S(N)(=O)=O)cc3)nn12 [Example 59]
Result block: f

Query block: Answer whether inhibition at 0.1 µM of CS(=O)(=O)c1ccc(-c2nn3c(c2-c2ccc(F)cc2)OCc2ccccc2-3)cc1 [Example 6] is greater than or equal to 90%.
Result block: f

Query block: Say whether CCc1coc2c(-c3ccc(F)cc3)c(-c3ccc(S(C)(=O)=O)cc3)nn12 [Example 61] shows inhibition at 0.1 µM of 90% or more.
Result block: t
